# pIC50 listing for each entry below
Target: Integrin alpha-IIb/beta-3 (Homo sapiens, UniProt P05106+P08514)
Sequence (P05106 27-788 limits assumed): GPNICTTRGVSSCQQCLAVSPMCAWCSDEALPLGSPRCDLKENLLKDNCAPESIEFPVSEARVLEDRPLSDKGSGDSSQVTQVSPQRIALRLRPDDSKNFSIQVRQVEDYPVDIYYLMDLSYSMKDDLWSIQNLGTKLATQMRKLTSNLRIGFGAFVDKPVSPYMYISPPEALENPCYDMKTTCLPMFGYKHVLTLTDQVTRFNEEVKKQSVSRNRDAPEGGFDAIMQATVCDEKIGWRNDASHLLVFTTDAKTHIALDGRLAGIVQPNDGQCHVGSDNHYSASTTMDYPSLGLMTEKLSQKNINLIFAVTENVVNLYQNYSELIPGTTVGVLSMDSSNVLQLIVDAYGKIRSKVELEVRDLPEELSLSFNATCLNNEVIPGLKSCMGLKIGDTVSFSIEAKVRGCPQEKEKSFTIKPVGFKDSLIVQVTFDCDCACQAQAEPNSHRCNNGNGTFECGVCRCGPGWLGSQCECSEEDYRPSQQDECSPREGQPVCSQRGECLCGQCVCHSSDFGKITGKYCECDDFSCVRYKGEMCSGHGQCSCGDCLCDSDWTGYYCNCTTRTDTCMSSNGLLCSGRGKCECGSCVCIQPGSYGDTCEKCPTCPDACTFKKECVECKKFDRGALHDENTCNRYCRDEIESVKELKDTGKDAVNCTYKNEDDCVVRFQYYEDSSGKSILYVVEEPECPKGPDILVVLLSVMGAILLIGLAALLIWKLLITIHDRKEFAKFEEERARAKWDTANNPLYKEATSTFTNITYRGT
Sequence (P08514 32-887 limits assumed): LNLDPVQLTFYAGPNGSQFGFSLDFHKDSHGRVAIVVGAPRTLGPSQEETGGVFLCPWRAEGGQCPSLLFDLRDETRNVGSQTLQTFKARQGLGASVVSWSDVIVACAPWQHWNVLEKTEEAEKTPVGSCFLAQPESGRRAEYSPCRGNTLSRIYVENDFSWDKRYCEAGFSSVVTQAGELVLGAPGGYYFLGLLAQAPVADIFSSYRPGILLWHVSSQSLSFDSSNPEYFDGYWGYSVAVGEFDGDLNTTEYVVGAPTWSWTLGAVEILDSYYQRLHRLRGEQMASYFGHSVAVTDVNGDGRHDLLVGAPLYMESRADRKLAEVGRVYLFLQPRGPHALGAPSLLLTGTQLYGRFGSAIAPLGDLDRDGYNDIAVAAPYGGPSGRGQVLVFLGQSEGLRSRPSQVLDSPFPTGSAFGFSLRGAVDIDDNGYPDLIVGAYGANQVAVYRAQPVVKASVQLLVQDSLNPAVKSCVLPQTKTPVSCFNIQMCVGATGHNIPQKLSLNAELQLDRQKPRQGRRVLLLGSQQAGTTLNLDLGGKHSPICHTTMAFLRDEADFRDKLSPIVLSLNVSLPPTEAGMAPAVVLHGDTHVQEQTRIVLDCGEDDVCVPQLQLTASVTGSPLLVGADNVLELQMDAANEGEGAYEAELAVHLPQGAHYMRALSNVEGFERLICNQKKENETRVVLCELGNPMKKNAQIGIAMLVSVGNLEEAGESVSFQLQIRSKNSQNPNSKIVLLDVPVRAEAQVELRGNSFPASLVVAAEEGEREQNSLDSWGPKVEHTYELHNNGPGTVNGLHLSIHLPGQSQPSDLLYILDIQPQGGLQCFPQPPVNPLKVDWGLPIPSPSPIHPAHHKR
Sequence (P08514 891-1039 limits assumed): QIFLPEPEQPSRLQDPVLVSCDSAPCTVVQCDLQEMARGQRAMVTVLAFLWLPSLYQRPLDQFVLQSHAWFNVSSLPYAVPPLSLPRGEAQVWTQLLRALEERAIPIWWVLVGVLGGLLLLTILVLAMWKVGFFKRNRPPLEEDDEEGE
Test: Displacement of fibrinogen from Human integrin alphaIIb-beta3
Assay type: protein-complex assay
pIC50: −log10 of the molar value.

molecule: O=C(O)CC1CC(CNC(=O)CCCc2ccc3c(n2)NCCC3)=CCc2ccccc21 (centres undefined)
pIC50: 5.83

molecule: O=C(O)CC1CC(CNC(=O)CCCNc2nc3ccccc3[nH]2)=CCc2ccccc21 (centres undefined)
pIC50: 5.99

molecule: CN(CCCC(=O)NCC1=CCc2ccccc2C(CC(=O)O)C1)c1ccccn1 (centres undefined)
pIC50: 6.18

molecule: O=C(O)CC1CC(CNC(=O)CCCCNc2ccccn2)=CCc2ccccc21 (centres undefined)
pIC50: 5.92
